# test target: T1, Recombinant Human TNF-α/TNFSF1A (human, UniProt P01375 77-233)
# T1 construct: also called hTNF-α; huTNFα
# T1 sequence (P01375 77-233 limits assumed): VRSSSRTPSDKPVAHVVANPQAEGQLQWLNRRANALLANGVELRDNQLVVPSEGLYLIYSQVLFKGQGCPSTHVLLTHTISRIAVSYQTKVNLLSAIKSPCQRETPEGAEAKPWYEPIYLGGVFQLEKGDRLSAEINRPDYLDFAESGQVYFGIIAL
# experiment summary: SPR (BIACORE), antibody captured, TNFα in solution
result type: kon (M⁻¹ s⁻¹)
Numbers only; they are read as M⁻¹ s⁻¹.

// AB381 (antibody, V domains shown, Full-length humanized antibody made in HEK 293-6E; also called hMAK199VH.2b/hMAK199VL.1) VH: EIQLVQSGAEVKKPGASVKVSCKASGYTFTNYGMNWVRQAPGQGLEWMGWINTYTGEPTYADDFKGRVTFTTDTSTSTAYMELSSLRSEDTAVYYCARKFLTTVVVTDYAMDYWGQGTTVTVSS VL: DIQMTQSPSSLSASVGDRVTITCRASQDISNYLNWYQQKPGKAPKLLIYYTSRLQSGVPSRFSGSGSGTDFTLTISSLQPEDFATYYCQQGNTLPPTFGQGTKLEIK : kon value = 860000

The binder identified as AB375 (antibody, V domains shown, Full-length humanized antibody made in HEK 293-6E; also called hMAK199VH.2a/hMAK199VL.1) VH: EIQLVQSGAEVKKPGASVKVSCKASGYTFTNYGMNWVRQAPGQGLEWMGWINTYTGEPTYADDFKGRFTFTLDTSTSTAYMELSSLRSEDTAVYFCARKFLTTVVVTDYAMDYWGQGTTVTVSS VL: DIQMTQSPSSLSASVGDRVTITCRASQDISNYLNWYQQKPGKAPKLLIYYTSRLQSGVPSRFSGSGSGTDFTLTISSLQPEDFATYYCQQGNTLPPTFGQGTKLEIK registered its kon at 900000

Origin of the recorded values: patent US20150111251A1
